Test system: HCV pseudotype (HIV core proteins, HCV E1 and E2 of strain H77)
Measurement context: HCV J4 1b E2 peptides at ~25 μM; Table 8; controls as in Table 7
Ends that are not written are not given here.
# key: entry, value: Luciferase units

Take a look at these entries with their results.
[
  {
    "Ordered residues": "PYCWHYAPRPCGVVPASQ [compound 91]",
    "Endpoint value": "160,883 luciferase units (lumens)"
  },
  {
    "Ordered residues": "DWFAQGWGPITYTKPNSS [compound 89, DWFAQGWGPITYTKPNSS]",
    "Endpoint value": "449,293 luciferase units (lumens)"
  },
  {
    "Ordered residues": "MASCRPIDWFAQGWGPIT [compound 88, MASCRPIDWFAQGWGPIT]",
    "Endpoint value": "412,776 luciferase units (lumens)"
  }
]

Param item: HYPCTLNFSIFKVRMYVG [compound 109, HYPCTLNFSIFKVRMYVG] ; param system: HCV pseudotype (HIV core proteins, HCV E1 and E2 of strain H77); output Luciferase units: 96,893 luciferase units (lumens)

Param item: TYSWGENETDVMLLNNTR [compound 97, TYSWGENETDVMLLNNTR] ; param system: HCV pseudotype (HIV core proteins, HCV E1 and E2 of strain H77); output Luciferase units: 218,673 luciferase units (lumens)

Param item: HRLNAACNWTRGERCNLE [compound 111] ; param system: HCV pseudotype (HIV core proteins, HCV E1 and E2 of strain H77); output Luciferase units: 632,613 luciferase units (lumens)

Param item: PTDCFRKHPEATYTKCGS [compound 104] ; param system: HCV pseudotype (HIV core proteins, HCV E1 and E2 of strain H77); output Luciferase units: 419,876 luciferase units (lumens)

Param item: GHTTSGFTSLFSSGASQK [compound 81, GHTTSGFTSLFSSGASQK] ; param system: HCV pseudotype (HIV core proteins, HCV E1 and E2 of strain H77); output Luciferase units: 480,623 luciferase units (lumens)

Param item: TSLFSSGASQKIQLVNTN [compound 82, TSLFSSGASQKIQLVNTN] ; param system: HCV pseudotype (HIV core proteins, HCV E1 and E2 of strain H77); output Luciferase units: 173,156 luciferase units (lumens)

Param item: ARVCACLWMMLLIAQAEA [compound 121] ; param system: HCV pseudotype (HIV core proteins, HCV E1 and E2 of strain H77); output Luciferase units: 338,200 luciferase units (lumens)

Param item: WMNSTGFTKTCGGPPCNI [compound 100] ; param system: HCV pseudotype (HIV core proteins, HCV E1 and E2 of strain H77); output Luciferase units: 518,190 luciferase units (lumens)

---

# key: entry, value: Luciferase units
System: HCV pseudotype (HIV core proteins, HCV E1 and E2 of strain H77)
Measurement context: HCV J4 1b E2 peptides at ~25 μM; Table 8; controls as in Table 7
Ends that are not written are not given here.

Take a look at these entries with their results.
[
  {
    "Ordered residues": "LTPRCLVDYPYRLWHYPC [compound 107]",
    "Luciferase units": "402,976 luciferase units (lumens)"
  },
  {
    "Ordered residues": "PASQVCGPVYCFTPSPVV [compound 93]",
    "Luciferase units": "409,220 luciferase units (lumens)"
  },
  {
    "Ordered residues": "DYPYRLWHYPCTLNFSIF [compound 108, DYPYRLWHYPCTLNFSIF]",
    "Luciferase units": "40,853 luciferase units (lumens)"
  }
]

Param item: KCGSGPWLTPRCLVDYPY [compound 106] ; param system: HCV pseudotype (HIV core proteins, HCV E1 and E2 of strain H77); output Luciferase units: 193,533 luciferase units (lumens)

Param item: FYAHKFNSSGCPERMASC [compound 86] ; param system: HCV pseudotype (HIV core proteins, HCV E1 and E2 of strain H77); output Luciferase units: 398,110 luciferase units (lumens)

Param item: TGFFAALFYAHKFNSSGC [compound 51, TGFFAALFYAHKFNSSGC] ; param system: HCV pseudotype (HIV core proteins, HCV E1 and E2 of strain H77); output Luciferase units: 237,086 luciferase units (lumens)

---

Test system: HCV pseudotype (HIV core proteins, HCV E1 and E2 of strain H77)
Measurement context: HCV H77 1a E2 peptides at ~25 μM; Table 7; virus alone 448,123
Ends that are not written are not given here.
Outcome measure: Luciferase units

Take a look at these entries with their results.
[
  {
    "Ordered residues": "GRTTAGLVGLLTPGAKQN [peptide 3, GRTTAGLVGLLTPGAKQN]",
    "Experimental system": "HCV pseudotype (HIV core proteins, HCV E1 and E2 of strain H77)",
    "Luciferase units": "447,906 luciferase units (lumens)"
  },
  {
    "Ordered residues": "TTLPALSTGLIHLHQNIV [compound 42, TTLPALSTGLIHLHQNIV]",
    "Experimental system": "HCV pseudotype (HIV core proteins, HCV E1 and E2 of strain H77)",
    "Luciferase units": "353,516 luciferase units (lumens)"
  },
  {
    "Ordered residues": "HRLEAACNWTRGERCDLE [compound 36]",
    "Experimental system": "HCV pseudotype (HIV core proteins, HCV E1 and E2 of strain H77)",
    "Luciferase units": "535,016 luciferase units (lumens)"
  }
]

Measured Luciferase units of GNWFGCTWMNSTGFTKVC [compound 23] : 367,916 luciferase units (lumens)

Measured Luciferase units of VGLLTPGAKQNIQLINTN [peptide 4, VGLLTPGAKQNIQLINTN] : 10,620 luciferase units (lumens)

Measured Luciferase units of RCGSGPWITPRCMVDYPY [compound 30] : 655,040 luciferase units (lumens)

Measured Luciferase units of SSGCPERLASCRRLTDFA [compound 10] : 334,196 luciferase units (lumens)

Measured Luciferase units of AGVDAETHVTGGSAGRTT [peptide 1, AGVDAETHVTGGSAGRTT] : 250,376 luciferase units (lumens)

Measured Luciferase units of LASCRRLTDFAQGWGPIS [compound 11, LASCRRLTDFAQGWGPIS] : 360,410 luciferase units (lumens)

Measured Luciferase units of RSELSPLLLSTTQWQVLP [compound 39, RSELSPLLLSTTQWQVLP] : 400,756 luciferase units (lumens)

Measured Luciferase units of ARVCSCLWMMLLISQAEA [compound 49] : 307,310 luciferase units (lumens)

Measured Luciferase units of QNIVDVQYLYGVGSSIAS [compound 44, QNIVDVQYLYGVGSSIAS] : 91,266 luciferase units (lumens)

Measured Luciferase units of HYPCTINYTIFKVRMYVG [compound 33, HYPCTINYTIFKVRMYVG] : 22,406 luciferase units (lumens)

Measured Luciferase units of SPVVVGTTDRSGAPTYSW [compound 19, SPVVVGTTDRSGAPTYSW] : 301,406 luciferase units (lumens)

Measured Luciferase units of GSGLDERPYCWHYPPRPC [compound 14] : 279,626 luciferase units (lumens)

Measured Luciferase units of NCNESLNTGWLAGLFYQH [compound 8, NCNESLNTGWLAGLFYQH] : 113,650 luciferase units (lumens)

Measured Luciferase units of HINSTALNCNESLNTGWL [compound 7, HINSTALNCNESLNTGWL] : 381,340 luciferase units (lumens)

Measured Luciferase units of QVLPCSFTTLPALSTGLI [compound 41, QVLPCSFTTLPALSTGLI] : 434,743 luciferase units (lumens)

Measured Luciferase units of TYSWGANDTDVFVLNNTR [compound 20, TYSWGANDTDVFVLNNTR] : 231,373 luciferase units (lumens)

Measured Luciferase units of FYQHKFNSSGCPERLASC [compound 9] : 501,126 luciferase units (lumens)

Measured Luciferase units of GNNTLLCPTDCFRKHPEA [compound 27] : 575,206 luciferase units (lumens)

---

Test system: HCV pseudotype (HIV core proteins, HCV E1 and E2 of strain H77)
Measurement context: 25 μM
Ends that are not written are not given here.
Classify as follows. Reported Percent inhibition greater than or equal to 30%: true (1). Reported Percent inhibition below: false (0).

[
  {
    "Ordered residues": "GSGLDERPYCWHYPPRPC [compound 14]",
    "Answer label": "true (1)"
  }
]

Prompt: Quick check, Percent inhibition >= 30%? GHTTSGFTSLFSSGASQK [compound 81, GHTTSGFTSLFSSGASQK]
Completion: false (0)

Prompt: Quick check, Percent inhibition >= 30%? QVLPCSFTTLPALSTGLI [compound 41, QVLPCSFTTLPALSTGLI]
Completion: false (0)

---

# key: entry, value: Percent inhibition
Tested on: HCV pseudotype (HIV core proteins, HCV E1 and E2 of strain H77)
Measurement context: 25 μM
Please state the figure in %; there is no need to write the unit.

[
  {
    "Compound": "CC[C@H](C)[C@H](NC(=O)[C@H](CCC(N)=O)NC(=O)[C@H](Cc1c[nH]c2ccccc12)NC(=O)[C@H](CCC(=O)O)NC(=O)[C@@H](NC(=O)[C@@H](NC(=O)[C@H](CO)NC(=O)[C@H](CC(C)C)NC(=O)[C@H](CC(C)C)NC(=O)[C@H](CC(C)C)NC(=O)[C@@H]1CCCN1C(=O)[C@H](CO)NC(=O)[C@H](CC(C)C)NC(=O)[C@H](CCC(=O)O)NC(=O)[C@H](CO)NC(=O)[C@@H](N)CCCNC(=N)N)[C@@H](C)O)[C@@H](C)O)C(=O)N[C@@H](CC(C)C)C(=O)N1CCC[C@H]1C(=O)O [compound 114, RSELSPLLLSTTEWQILP]",
    "Uom": "%",
    "Percent inhibition": 39.7
  },
  {
    "Compound": "CSCC[C@H](N)C(=O)N[C@@H](Cc1ccc(O)cc1)C(=O)N[C@H](C(=O)NCC(=O)NCC(=O)N[C@H](C(=O)N[C@@H](CCC(=O)O)C(=O)N[C@@H](Cc1c[nH]cn1)C(=O)N[C@@H](CCCNC(=N)N)C(=O)N[C@@H](CC(C)C)C(=O)N[C@@H](CC(N)=O)C(=O)N[C@@H](C)C(=O)N[C@@H](C)C(=O)N[C@@H](CS)C(=O)N[C@@H](CC(N)=O)C(=O)N[C@@H](Cc1c[nH]c2ccccc12)C(=O)N[C@H](C(=O)N[C@@H](CCCNC(=N)N)C(=O)O)[C@@H](C)O)C(C)C)C(C)C [compound 110, MYVGGVEHRLNAACNWTR]",
    "Uom": "%",
    "Percent inhibition": "−34.5"
  },
  {
    "Compound": "CC(C)C[C@H](NC(=O)[C@H](C)NC(=O)[C@H](C)NC(=O)[C@H](Cc1ccccc1)NC(=O)[C@H](Cc1ccccc1)NC(=O)CNC(=O)[C@@H](NC(=O)[C@H](CCC(N)=O)NC(=O)[C@H](CC(C)C)NC(=O)[C@H](CO)NC(=O)[C@H](CC(=O)O)NC(=O)[C@H](CC(N)=O)NC(=O)[C@H](CS)NC(=O)[C@@H](N)CC(N)=O)[C@@H](C)O)C(=O)N[C@@H](Cc1ccccc1)C(=O)N[C@@H](Cc1ccc(O)cc1)C(=O)N[C@@H](C)C(=O)N[C@@H](Cc1c[nH]cn1)C(=O)O [compound 85, NCNDSLQTGFFAALFYAH]",
    "Uom": "%",
    "Percent inhibition": 74.9
  },
  {
    "Compound": "CSCC[C@H](NC(=O)[C@H](Cc1c[nH]c2ccccc12)NC(=O)[C@@H](NC(=O)[C@H](CS)NC(=O)CNC(=O)[C@H](Cc1ccccc1)NC(=O)[C@H](Cc1c[nH]c2ccccc12)NC(=O)[C@H](CC(N)=O)NC(=O)CNC(=O)[C@H](CCC(N)=O)NC(=O)[C@@H]1CCCN1C(=O)[C@@H]1CCCN1C(=O)[C@H](CCCNC(=N)N)NC(=O)[C@@H](NC(=O)[C@H](CC(N)=O)NC(=O)[C@@H](N)CC(N)=O)[C@@H](C)O)[C@@H](C)O)C(=O)N[C@@H](CC(N)=O)C(=O)N[C@@H](CO)C(=O)O [compound 99, NNTRPPQGNWFGCTWMNS]",
    "Uom": "%",
    "Percent inhibition": 75.2
  },
  {
    "Compound": "CC[C@H](C)[C@H](NC(=O)[C@H](Cc1c[nH]cn1)NC(=O)[C@H](Cc1c[nH]c2ccccc12)NC(=O)[C@H](CO)NC(=O)CNC(=O)[C@H](CC(N)=O)NC(=O)[C@@H](NC(=O)[C@H](CC(N)=O)NC(=O)[C@@H](NC(=O)[C@H](CC(C)C)NC(=O)[C@H](CCC(N)=O)NC(=O)[C@@H](NC(=O)[C@H](CCCCN)NC(=O)[C@H](CCC(N)=O)NC(=O)[C@H](CO)NC(=O)[C@H](C)N)[C@@H](C)CC)C(C)C)[C@@H](C)O)C(=O)N[C@@H](CC(N)=O)C(=O)N[C@@H](CCCNC(=N)N)C(=O)O [compound 83, ASQKIQLVNTNGSWHINR]",
    "Uom": "%",
    "Percent inhibition": "−15.8"
  }
]

Here is another compound to look at.
Measured Percent inhibition of CC[C@H](C)[C@H](NC(=O)[C@@H](NC(=O)[C@H](CC(C)C)NC(=O)[C@H](CC(N)=O)NC(=O)[C@H](CCC(=O)O)NC(=O)[C@H](CC(C)C)NC(=O)[C@H](C)NC(=O)[C@H](C)NC(=O)[C@H](CCC(=O)O)NC(=O)[C@H](C)NC(=O)[C@H](CCC(N)=O)NC(=O)[C@H](CO)NC(=O)[C@@H](NC(=O)[C@H](CC(C)C)NC(=O)[C@H](CC(C)C)NC(=O)[C@H](CCSC)NC(=O)[C@H](CCSC)NC(=O)[C@@H](N)Cc1c[nH]c2ccccc12)[C@@H](C)CC)C(C)C)C(=O)O [compound 50, WMMLLISQAEAALENLVI] : 87.9
